FYI, the data here is from ChEMBL document CHEMBL2396574.

- assay.target: Retinoic acid receptor beta (Homo sapiens)
- Sequence (whole entry): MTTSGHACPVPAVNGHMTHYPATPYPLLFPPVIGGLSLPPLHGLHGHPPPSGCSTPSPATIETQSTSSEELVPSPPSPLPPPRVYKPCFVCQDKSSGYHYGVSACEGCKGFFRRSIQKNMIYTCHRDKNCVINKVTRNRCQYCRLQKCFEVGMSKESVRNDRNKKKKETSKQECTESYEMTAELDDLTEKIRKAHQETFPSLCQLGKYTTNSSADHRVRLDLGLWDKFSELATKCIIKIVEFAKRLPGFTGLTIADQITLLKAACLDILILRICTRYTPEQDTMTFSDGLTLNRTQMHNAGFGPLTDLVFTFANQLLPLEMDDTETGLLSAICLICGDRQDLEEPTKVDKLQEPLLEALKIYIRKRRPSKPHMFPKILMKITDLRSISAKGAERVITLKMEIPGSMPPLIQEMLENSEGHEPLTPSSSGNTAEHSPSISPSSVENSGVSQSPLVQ
- test.name: Transactivation of Gal4-fused RARbeta (unknown origin) expressed in African green monkey COS1 cells at 100 nM by luciferase reporter gene assay relative to DMSO-treated control
- Format: cell-based
- experimental.conditions: COS-1
reported.property: fold change (FC)
The response must contain the number and no unit.

Recorded results for 4 compounds are shown here.
| substance.smiles | fold change (FC) |
| --- | --- |
| O=C(Nc1ccc(C(=O)O)c(F)c1)c1cc2c3c(c1)CCCCC3CCCC2 | 19 |
| O=C(Nc1ccc(C(=O)O)c(O)c1)c1cc2c3c(c1)CCCCC3CCCC2 | 11 |
| COc1cc(NC(=O)c2cc3c4c(c2)CCCC4CCC3)ccc1C(=O)O | 2 |
| O=C(O)c1ccc(C(=O)Nc2cc3cc(c2)CCCCCCCCCC3)cc1 | 8 |

Below: the item to evaluate.
Input line: Record request: fold change (FC) value, item O=C(Nc1ccc(C(=O)O)c(Cl)c1)c1cc2c3c(c1)CCCCC3CCCC2
Output line: 13

* * *

This listing pairs molecules with measured fold change (FC).
- assay.target: Retinoic acid receptor gamma (Homo sapiens) (UniProt P13631)
- Sequence (whole entry): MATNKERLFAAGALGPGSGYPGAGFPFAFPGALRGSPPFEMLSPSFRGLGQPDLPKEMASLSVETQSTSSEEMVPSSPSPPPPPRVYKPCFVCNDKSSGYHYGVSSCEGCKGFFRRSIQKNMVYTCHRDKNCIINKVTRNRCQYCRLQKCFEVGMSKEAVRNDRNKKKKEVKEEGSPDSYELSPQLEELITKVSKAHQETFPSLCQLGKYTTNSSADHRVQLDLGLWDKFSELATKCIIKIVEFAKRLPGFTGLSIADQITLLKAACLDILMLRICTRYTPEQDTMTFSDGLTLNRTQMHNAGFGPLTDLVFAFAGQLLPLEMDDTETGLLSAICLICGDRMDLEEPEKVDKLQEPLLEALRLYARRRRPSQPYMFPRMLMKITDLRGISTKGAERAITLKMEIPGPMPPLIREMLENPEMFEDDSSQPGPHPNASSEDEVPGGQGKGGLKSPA
- test.name: Transactivation of Gal4-fused RARgamma (unknown origin) expressed in African green monkey COS1 cells at 100 nM by luciferase reporter gene assay relative to DMSO-treated control
- Assay type: cell-based
- experimental.conditions: COS-1
// response body must contain only the number

Solved entries (count: 8):
| substance.smiles | fold change (FC) |
| --- | --- |
| O=C(Nc1ccc(C(=O)O)c(Cl)c1)c1cc2c3c(c1)CCCCC3CCCC2 | 2 |
| O=C(O)c1ccc(C(=O)Nc2cc3c4c(c2)CCCCC4CCCC3)cc1 | 1 |
| O=C(O)c1ccc(NC(=O)c2cc3cc(c2)CCCCCCCCCC3)cc1 | 1 |
| O=C(O)c1ccc(NC(=O)c2cc3c4c(c2)CCCCC4CCCC3)cc1 | 10 |
| CC12CCCc3cc(C(=O)Nc4ccc(C(=O)O)c(F)c4)cc(c31)CCC2 | 2 |
| CC12CCCc3cc(NC(=O)c4ccc(C(=O)O)cc4)cc(c31)CCC2 | 1 |
| COc1cc(NC(=O)c2cc3c4c(c2)CCCC4(C)CCC3)ccc1C(=O)O | 1 |
| CC12CCCc3cc(C(=O)Nc4ccc(C(=O)O)cc4)cc(c31)CCC2 | 4 |

Input line: Under Retinoic acid receptor gamma (Homo sapiens) (UniProt P13631): fold change (FC) value of O=C(O)c1ccc(NC(=O)c2cc3c4c(c2)CCCC4CCC3)nc1 ?
Output line: 20

Input line: Recorded fold change (FC) for O=C(O)c1ccc(NC(=O)c2cc3c4c(c2)CCCCC4CCCC3)nc1 with Retinoic acid receptor gamma (Homo sapiens) (UniProt P13631), please?
Output line: 56

Input line: Give fold change (FC) (Retinoic acid receptor gamma (Homo sapiens) (UniProt P13631)) of the following molecule: O=C(Nc1ccc(C(=O)O)nc1)c1cc2c3c(c1)CCCC3CCC2
Output line: 1

Input line: Param readout = fold change (FC); param system = Retinoic acid receptor gamma (Homo sapiens) (UniProt P13631); param query = CC12CCCc3cc(C(=O)Nc4ccc(C(=O)O)c(O)c4)cc(c31)CCC2 ; response: value
Output line: 1

Input line: # query: fold change (FC) | item CC12CCCc3cc(NC(=O)c4ccc(C(=O)O)nc4)cc(c31)CCC2 | system: Retinoic acid receptor gamma (Homo sapiens) (UniProt P13631)
Output line: 1

Input line: Observed fold change (FC) on Retinoic acid receptor gamma (Homo sapiens) (UniProt P13631) for COc1cc(NC(=O)c2cc3c4c(c2)CCCCC4CCCC3)ccc1C(=O)O , please.
Output line: 2
